For each record, write down the corresponding CREATINE PHOSPHOKINASE.
Organism: Rattus norvegicus
procedure.details: DrugMatrix - Regimen: Daily Repeat
Assay type: toxicity, organism-based, Sprague-Dawley
Parameters: regimen Daily Repeat, gender Male, age 6-8 weeks
condition.info: in vivo, iv, 0 mg/kg, 72 h, tissue Plasma, dose level Control, time 3 day, vehicle 100 % SALINE
Give bare numbers, in u/L.

# smiles, readout.type, val
data = [
    ("CN(N=O)C(=O)N[C@@H](C=O)[C@@H](O)[C@H](O)[C@H](O)CO", "CREATINE PHOSPHOKINASE", 414.67),
]

Kindly give each listed record's CREATINE PHOSPHOKINASE.
1. CC1(C)S[C@@H]2[C@H](NC(=O)[C@H](NC(=O)N3CCNC3=O)c3ccccc3)C(=O)N2[C@H]1C(=O)O
2. NCC[C@H](O)C(=O)N[C@@H]1C[C@H](N)[C@@H](O[C@H]2O[C@H](CN)[C@@H](O)[C@H](O)[C@H]2O)[C@H](O)[C@H]1O[C@H]1O[C@H](CO)[C@@H](O)[C@H](N)[C@H]1O
3. CC[C@@]1(O)C(=O)OCc2c1cc1n(c2=O)Cc2cc3ccccc3nc2-1

1: 275.33; 2: 316.5; 3: 732.67
